System: T1, human LILRB2 expressed on cells (human, UniProt Q8N423 22-597)
T1 construct: In 293T cells it was expressed from pCMV3-LILRB2-GFP; also called CHO-LILRB2; Jurkat-LILRB2
T1 sequence (Q8N423 other isoform, or with tags, fused parts or gaps limits assumed): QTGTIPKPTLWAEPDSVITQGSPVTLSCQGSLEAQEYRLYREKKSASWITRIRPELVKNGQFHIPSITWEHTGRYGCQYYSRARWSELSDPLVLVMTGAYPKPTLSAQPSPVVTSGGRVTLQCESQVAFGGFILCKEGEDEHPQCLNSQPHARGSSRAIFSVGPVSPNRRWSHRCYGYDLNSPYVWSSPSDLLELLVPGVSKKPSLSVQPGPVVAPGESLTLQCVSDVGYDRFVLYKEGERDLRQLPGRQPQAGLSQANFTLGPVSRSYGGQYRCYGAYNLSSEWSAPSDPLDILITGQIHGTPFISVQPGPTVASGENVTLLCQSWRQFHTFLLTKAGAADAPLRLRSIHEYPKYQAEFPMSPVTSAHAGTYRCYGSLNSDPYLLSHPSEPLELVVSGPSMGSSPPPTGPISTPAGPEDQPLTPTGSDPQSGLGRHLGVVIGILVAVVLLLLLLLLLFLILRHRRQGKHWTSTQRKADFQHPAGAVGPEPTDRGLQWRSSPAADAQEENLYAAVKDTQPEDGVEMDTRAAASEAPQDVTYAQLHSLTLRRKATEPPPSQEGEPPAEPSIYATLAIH
Test details: flow cytometry, Jurkat-LILRB2 cells
Outcome measure: EC50 (µg/mL)
Please reply with the bare figure in µg/mL and do not write the unit itself.

### Prompt I would be grateful if you could share the reported EC50 for D2M002-026 (antibody, V domains shown, Hit; also called clone #26) VH: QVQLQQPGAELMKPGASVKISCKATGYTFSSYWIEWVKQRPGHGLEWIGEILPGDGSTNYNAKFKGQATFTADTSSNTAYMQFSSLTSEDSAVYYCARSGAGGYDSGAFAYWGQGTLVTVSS VL: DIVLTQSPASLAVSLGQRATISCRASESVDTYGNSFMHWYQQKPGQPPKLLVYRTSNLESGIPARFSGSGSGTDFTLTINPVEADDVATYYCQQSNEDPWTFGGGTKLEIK .
### Response 0.106

// data source = patent US20250171534A1
